test name: Evaluation of penetration into the center (plasma, CSF and tissue concentration by LC/MS/MS)
Type: in vivo, Cynomolgus monkeys
reported conditions: female, cynomolgus monkey, spinal cord, subcutaneous; 0.1 mg/kg s.c., 180 minutes after administration, tissue homogenate, n=3; read-out: average concentration in spinal cord
experimental readout: concentration at 180 min (ng/mL)
Give bare numbers, in ng/mL.

Task: Give the reported concentration at 180 min for this compound. Cc1cc(C(=O)O)ccc1COc1cc2c(cc1N(CC(C)C)S(=O)(=O)c1nccs1)CCC2
Result: 0.19

----------
test name: Evaluation of penetration into the center (plasma, CSF and tissue concentration by LC/MS/MS)
Format: in vivo, Cynomolgus monkeys
reported conditions: female, cynomolgus monkey, upper esophagus / plasma, subcutaneous; 0.1 mg/kg s.c., 180 minutes after administration; read-out: percentage to the concentration in plasma, upper esophagus
experimental readout: Kp at 180 min
Answers are plain numbers.

Task: Give the reported Kp at 180 min for this compound. Cc1cc(C(=O)O)ccc1COc1cc2c(cc1N(CC(C)C)S(=O)(=O)c1nccs1)CCC2
Result: 0.073
